Target: T1, CaBdf1 BD1 (GST-tagged, wild-type) (Candida albicans (strain SC5314 / ATCC …, UniProt Q5A4W8))
T1 chain: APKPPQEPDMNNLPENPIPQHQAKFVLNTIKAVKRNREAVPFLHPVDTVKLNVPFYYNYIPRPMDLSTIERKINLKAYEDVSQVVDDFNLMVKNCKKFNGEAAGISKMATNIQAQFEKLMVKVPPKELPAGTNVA
Assay: histone peptide array (Active Motif MODified), 1 uM GST-tagged bromodomain, anti-GST detection, normalized mean intensity
Square brackets hold non-standard residues; d marks the D form. Ends that are not written are not given here. pT = C[C@@H](OP(=O)(O)O)[C@H](N)C(=O)O; pS = N[C@@H](COP(=O)(O)O)C(=O)O; Me2a = not defined here
A collection of binders and their measured binding score
Endpoint Label: binding score

INSERT INTO assay_data (binder, quantitative_readout) VALUES
  ('ARTKQTARKSTGGKAPRKQ (A Rme2a T Kme3 Q T A Rme2s Kac S T G G K A P R K Q)', 0.0337),
  ('PRKQLATKAAR(Me2a)K(Me2)[pS]APATGG (reading uncertain)', 0.00145),
  ('SGRGKGGKGLGKGGAKRHR (S G Rme2a G Kac G G Kac G L G K G G A K R H R)', 0.0558),
  ('ARTKQTARKSTGGKAPRKQ (A R T Kac Q T A Rme2a Kac S T G G K A P R K Q)', 0.0464),
  ('AR[pT]KQTARKSTGGKAPRKQ', 0),
  ('AR(Me2a)[pT]K(Ac)QTARKSTGGKAPRKQ (reading uncertain)', 0.00943),
  ('ARTKQTARKSTGGKAPRKQ (A R T K Q T A R Kac pS T G G K A P R K Q)', 0.00435),
  ('PRKQLATKAARK[pS]APATGG', 0.00218),
  ('ARTK(me2)QTAR(me2s)K(Me)STGGKAPRKQ', 0.00544),
  ('PRKQLATKAAR(Me2s)K(Me3)SAPATGG', 0.00181),
  ('PRKQLATKAARK(Ac)[pS]APATGG', 0.0029),
  ('SGRGKGGKGLGKGGAKRHR (S G Rme2a G K G G K G L G K G G A K R H R)', 0.00906),
  ('ARTKQTARKSTGGKAPRKQ (A Rme2s T Kac Q T A Rme2a Kme3 S T G G K A P R K Q)', 0.00471),
  ('PRKQLATKAAR(Me2a)K(Me)[pS]APATGG (reading uncertain)', 0.0029);
